# Test system: Pyricularia oryzae
# Type: in vivo
# experimental-context: individual active compound, 16 ppm in the spray liquor; protective, inoculated next day, assessed after 6 days
Measured Efficacy in % of the untreated control, listed per entry for reference.
Write the answer as a number in %, unit excluded.

compound	display-unit	Efficacy in % of the untreated control
O=C1C2CC=CCC2C(=O)N1SC(Cl)(Cl)Cl (centres unmarked)	%	0
O=C1c2ccccc2C(=O)N1SC(Cl)(Cl)Cl	%	0
CC1CCN(c2c(-c3c(F)cccc3Cl)c(Cl)nc3ncnn23)CC1	%	35
CC1CCN(c2c(-c3c(F)cc(F)cc3F)c(Cl)nc3ncnn23)CC1	%	21

Please examine the following record next.
INPUT: Which Efficacy in % of the untreated control reading was recorded for the compound C[C@H](Nc1c(-c2c(F)cc(F)cc2F)c(Cl)nc2ncnn12)C(F)(F)F ?
OUTPUT: 48

---

// reported Efficacy in % of the untreated control per item
# Tested on: Pyricularia oryzae
# Assay type: in vivo
# experimental-context: individual active compound, 63 ppm in the spray liquor; protective, inoculated next day, assessed after 6 days
Numbers only here, please. The scale is %.

Some solved cases for reference:
compound	test-system	value-observed
CC1CCN(c2c(-c3c(F)cc(F)cc3F)c(Cl)nc3ncnn23)CC1	Pyricularia oryzae	48
C[C@H](Nc1c(-c2c(F)cc(F)cc2F)c(Cl)nc2ncnn12)C(F)(F)F	Pyricularia oryzae	61
O=C1C2CC=CCC2C(=O)N1SC(Cl)(Cl)Cl (centres unmarked)	Pyricularia oryzae	35
CC1CCN(c2c(-c3c(F)cccc3Cl)c(Cl)nc3ncnn23)CC1	Pyricularia oryzae	61

Now for the compound whose Efficacy in % of the untreated control we want.
INPUT: Entry under review: O=C1c2ccccc2C(=O)N1SC(Cl)(Cl)Cl . Reported Efficacy in % of the untreated control?
OUTPUT: 8
